Tested on: Streptococcus pneumoniae A28272
Experiment: MIC, broth micro dilution assay (NCCLS)
Type: cell-based
Conditions: 50% Mueller-Hinton medium and 50% Todd Hewitt medium, 35° C., 18 hours
Overview of recorded MIC (μg/mL) Streptococcus pneumoniae A28272 for various compounds
Note: unit µg/mL is implicit; provide only the numeric part.

compound: C=C(NC(=O)c1csc(-c2nc3c(cc2O)-c2nc(cs2)C(=O)NC(C(C)O)C(=O)NC(=C(C)OC)c2nc(cs2)C(=O)NC2c4nc(cs4)C(=O)NC(COC(=O)c4c5c6c(cccc6n4OC(=O)NCCOCCOCCOCCOC)COC(=O)C(OC4CC(C)(O)C(N(C)C)C(C)O4)C2OC5)c2nc-3cs2)n1)C(N)=O (stereo not drawn)
experimental value: 0.015

**Q:** If you can, please state the reported MIC (μg/mL) Streptococcus pneumoniae A28272 value of C=C(NC(=O)c1csc(-c2nc3c(cc2OCC(O)CO)-c2nc(cs2)C(=O)NC(C(C)O)C(=O)NC(=C(C)OC)c2nc(cs2)C(=O)NC2c4nc(cs4)C(=O)NC(COC(=O)c4c5c6c(cccc6n4O)COC(=O)C(OC4CC(C)(O)C(N(C)C)C(C)O4)C2OC5)c2nc-3cs2)n1)C(N)=O (stereo not drawn) .
**A:** 0.25

**Q:** If you can, please state the reported MIC (μg/mL) Streptococcus pneumoniae A28272 value of C=C(NC(=O)c1csc(-c2nc3c(cc2O)-c2nc(cs2)C(=O)NC(C(C)O)C(=O)NC(=C(C)OC)c2nc(cs2)C(=O)NC2c4nc(cs4)C(=O)NC(COC(=O)c4c5c6c(cccc6n4OCCCN4CCN(C)CC4)COC(=O)C(OC4CC(C)(O)C(N(C)C)C(C)O4)C2OC5)c2nc-3cs2)n1)C(N)=O (stereo not drawn) .
**A:** 0.03
